- Test system: HT-29
- measurement notes: Cytotoxicity against human HT-29 cells after 72 hrs by MTT assay
- Format: functional
- measurement parameters: HT-29, 72 h

| compound | reading qualifier | GI50 / µM |
| --- | --- | --- |
| CS/C(=N\C(=O)c1ccco1)NC(=O)c1ccco1 | = | 77.1 |
| C[Se]/C(=N\C(=O)c1cc(-c2ccccc2)nc2ccccc12)NC(=O)c1cc(-c2ccccc2)nc2ccccc12 | = | 0.46 |
| C[Se]/C(=N\C(=O)c1cccs1)NC(=O)c1cccs1 | = | 0.00034 |
| CS/C(=N\C(=O)c1sccc1Cl)NC(=O)c1sccc1Cl | = | 35.6 |
| O=C(/N=C(/NC(=O)c1cccs1)[Se]Cc1ccccc1)c1cccs1 | = | 55.1 |
| C[Se]/C(=N\C(=O)c1ccno1)NC(=O)c1ccno1 | = | 0.00079 |
| CC(=O)O[C@H]1C(=O)[C@@]2(C)[C@H]([C@H](OC(=O)c3ccccc3)[C@]3(O)C[C@H](OC(=O)[C@H](O)[C@@H](NC(=O)c4ccccc4)c4ccccc4)C(C)=C1C3(C)C)[C@]1(OC(C)=O)CO[C@@H]1C[C@@H]2O | = | 0.003 |
| O=C(/N=C(/NC(=O)c1ccc2c(c1)OCO2)[Se]Cc1ccccc1)c1ccc2c(c1)OCO2 | = | 57.3 |
| O=C(/N=C(/NC(=O)c1ccno1)[Se]Cc1ccccc1)c1ccno1 | = | 6.82 |
| O=C(/N=C(/NC(=O)c1ccco1)[Se]Cc1ccccc1)c1ccco1 | = | 7.19 |
| O=C(/N=C(/NC(=O)c1cc2ccccc2s1)[Se]Cc1ccccc1)c1cc2ccccc2s1 | = | 6.51 |
| C[Se]/C(=N\C(=O)c1sccc1Cl)NC(=O)c1sccc1Cl | = | 0.0049 |
| CS/C(=N\C(=O)c1ccno1)NC(=O)c1ccno1 | > | 100 |
| C[Se]/C(=N\C(=O)c1ccco1)NC(=O)c1ccco1 | = | 5e-05 |
| O=C(/N=C(/NC(=O)c1csc([N+](=O)[O-])c1)[Se]Cc1ccccc1)c1csc([N+](=O)[O-])c1 | = | 9.25 |
| CC[C@@]1(O)C(=O)OCc2c1cc1n(c2=O)Cc2cc3ccccc3nc2-1 | = | 0.05 |
| C[Se]/C(=N\C(=O)c1ccc2c(c1)OCO2)NC(=O)c1ccc2c(c1)OCO2 | = | 0.53 |
| CN(Cc1cnc2nc(N)nc(N)c2n1)c1ccc(C(=O)N[C@@H](CCC(=O)O)C(=O)O)cc1 [METHOTREXATE] | = | 0.04 |
| CS/C(=N\C(=O)c1cccs1)NC(=O)c1cccs1 | = | 77.9 |
